target: T1, human LAP-TGFB1 Fc fusion (human); assay: SPR pH 6.0, antigen captured on Fab 54BLH
T1 construct: also called human LAP-TGFβ1-Fc; human LAP-TGFβ-Fc isoform 1
T1 sequence (chain, as listed by the source limits assumed): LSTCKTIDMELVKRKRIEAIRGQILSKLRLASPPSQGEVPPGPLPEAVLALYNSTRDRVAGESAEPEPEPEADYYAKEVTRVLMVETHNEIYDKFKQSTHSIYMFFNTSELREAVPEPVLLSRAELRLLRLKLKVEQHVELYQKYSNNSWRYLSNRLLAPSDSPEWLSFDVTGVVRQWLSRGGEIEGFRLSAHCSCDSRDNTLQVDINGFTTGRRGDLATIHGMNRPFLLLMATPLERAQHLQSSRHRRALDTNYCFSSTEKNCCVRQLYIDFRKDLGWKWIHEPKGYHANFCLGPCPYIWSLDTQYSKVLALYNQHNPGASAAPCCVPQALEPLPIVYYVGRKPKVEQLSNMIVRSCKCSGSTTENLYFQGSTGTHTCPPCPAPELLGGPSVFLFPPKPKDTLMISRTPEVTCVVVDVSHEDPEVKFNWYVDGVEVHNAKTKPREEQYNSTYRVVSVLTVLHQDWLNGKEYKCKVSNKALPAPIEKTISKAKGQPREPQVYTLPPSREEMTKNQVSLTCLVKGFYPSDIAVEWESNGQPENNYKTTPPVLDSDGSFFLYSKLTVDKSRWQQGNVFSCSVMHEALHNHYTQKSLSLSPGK
Please respond with reported Kd for every item in the list.
Please state the number and follow it with the unit.

Answered cases to consult:
# binder, assay_value
data = [
    ("06BLM (antibody, human IgG1, L234A L235A, V domains shown, IgG1 L234A L235A D265S/kappa; also called 69BLH; 42BMD) VH: EVQLVQSGAEVKKPGASVKVSCKASGYTFTSYDMHWVRQAPGQGLEWMGRIDPQSGGIRYAQKFQGRATLTVDTSTSTAYMELSRLRSDDTAVYYCARWDYGGQFDVWGQGTLVTVSS VL: DIQMTQSPSSLSASVGDRVTITCRASQDIYNYLNWYQQKPGKAVKLLIYYTSILETGVPSRFSGSGSGTDYTLTISSLQPEDFATYFCQQGDTLPWTFGQGTKLEIK", "0.0114 nM"),
    ("59BLH (Fab, V domains shown, also called 11BLM Fab) VH: EVQLVQSGAEVKKPGASVKVSCKASGYTFTSYDMHWVRQAPGQGLEWMGRIDPQSGGIRYAQKFQGRATLTVDTSTSTAYMELSRLRSDDTAVYYCARWDYGGYFDVWGQGTLVTVSS VL: DIQMTQSPSSLSASVGDRVTITCRASQDIYNYLNWYQQKPGKAVKLLIYYTSVLETGVPSRFSGSGSGTDYTLTISSLQPEDFATYFCQQGDTLPWTFGQGTKLEIK", "0.179 nM"),
]

Task item: Request the reported Kd associated with 63BLH (Fab, V domains shown, also called 15BLM Fab; 015BLM Fab) VH: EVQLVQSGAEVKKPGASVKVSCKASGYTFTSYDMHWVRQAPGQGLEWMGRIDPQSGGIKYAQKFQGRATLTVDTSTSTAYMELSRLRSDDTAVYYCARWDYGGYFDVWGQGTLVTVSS VL: DIQMTQSPSSLSASVGDRVTITCRASQDIYNYLNWYQQKPGKAVKLLIYYTSRLETGVPSRFSGSGSGTDYTLTISSLQPEDFATYFCQQGDTLPWTFGQGTKLEIK
Reply: 1.06 nM
